// data source = ChEMBL document CHEMBL1141332

# Tested on: EKVX
# test: Cytotoxicity against human EKVX cells
# Format: functional
# run_conditions: read-out: Log TGI (converted)
measure: TGI
Number plus unit, in that order.

1. CC(=O)C1=CC[C@H]2[C@]3(C)CC[C@H]4C(C)(C)CCC[C@]4(C(=O)O)[C@H]3CC(=O)[C@]2(C)[C@H]1C=O ... 5.62 µM

Answer for every listed entry: what is its TGI? The entries follow.
1. CC(=O)O[C@@H]1C[C@H]2[C@]3(C)CC[C@H]4C(C)(C)CCC[C@]4(C)[C@H]3C[C@H](O)[C@]2(C)[C@@H](C=O)[C@@H]1C(C)=O
2. CC1OC(=O)[C@H]2[C@H]1[C@@H](O)C[C@H]1[C@]3(C)CC[C@H]4C(C)(C)CCC[C@]4(C)[C@H]3C[C@@H](O)[C@]21C (some centres undefined)
3. CC(=O)O[C@H]1C[C@H]2[C@@](C)(CC[C@H]3C(C)(C)CCC[C@@]32CO)[C@@H]2CC=C(C(C)=O)[C@H](C=O)[C@@]12C

2.75 µM
45.7 µM
2.14 µM
